This collection of values is drawn from PubChem BioAssay (NCI).

run description: NCI Yeast Anticancer Drug Screen. Data for the sgs1 mgt1 strain (AID 161);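 also: 0% = growth of cultures given vehicle only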
conditions used: S. cerevisiae sgs1 mgt1 strain, at 50.0 µM
Compounds without any hit were thinned out: in the full panel of roughly 79,000, 15% have a hit. Calls of active or inactive are those of the source. Rule as the data show it: active = growth inhibition above about 70%; inactive = the rest.
# output must be one of Yes = active, No = inactive

Tell me the assay call for `COc1ccccc1OC(C)=O` please. No

Tell me the assay call for O=C(O)C1C2CCC(O2)C1C(=O)NCc1cccnc1 (stereo unspecified) please. No

Give the logged outcome of this assay for the following compound: `COc1ccccc1/C=N\NC(=O)c1ccccc1O` No

Given `CN(C)C1=NC(c2ccccc2)(c2ccccc2)C(=O)N1` , state the outcome it received in this test. No

Outcome? CCCCCCCCCCOC(=O)C(C)O (stereo unspecified) No

Recorded test outcome, item CCCCCOC(=O)OC(C)CNC(=O)C(C)OC(=O)OCCCCC (stereo unspecified) No

Fill in: this test's call for Cc1ccc2c(c1)C(C)(C)C(C)C2(C)C (stereo unspecified) is ___ No

Which outcome was assigned to CCOC(=O)C(/C=N/Nc1ccc([N+](=O)[O-])cc1[N+](=O)[O-])Oc1cccc(OC)c1 (stereo unspecified) in this test? No

* * *

Provide the reported growth inhibition of each item.
run description: NCI Yeast Anticancer Drug Screen. Data for the rad50 strain (AID 155);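 also: 0% = growth of vehicle-only cultures of the same strain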
conditions used: S. cerevisiae rad50 strain growth inhibition; at 50.0 µM; active compounds read high
Compounds without any hit were thinned out: in the full panel of roughly 79,000, 15% have a hit.
Give bare numbers, in %.

Go through the items and report each one's growth inhibition.
1. CCOC(=O)C(C)=P(c1ccccc1)(c1ccccc1)c1ccccc1
2. CC(=O)/C=C/c1ccc(C)cc1

[-1.6, 27.1]

* * *

run description: NCI Yeast Anticancer Drug Screen. Data for the mec2-1 strain (AID 157)
conditions used: S. cerevisiae mec2-1 strain, at 50.0 µM, active compounds read high
This is part of a sample that, as a whole, favours compounds with a hit. Of some 79,000 tested, about 15% had one in any assay.
assay metric: growth inhibition (%)
One number for each entry, in %.

Below: 5 molecules and their reported growth inhibition.
>  <molecule>
CCOC(=O)C1CCN(S(=O)(=O)c2ccccc2)CC1

>  <unit of measure>
%

>  <growth inhibition>
-7.3

$$$$
>  <molecule>
COC(=O)C(C(=O)C(=O)NC1=C(Cl)C(=O)c2ccccc2C1=O)c1csc(-n2nc(-c3ccccc3)cc2-c2ccccc2)n1 (stereo unspecified)

>  <unit of measure>
%

>  <growth inhibition>
-26.6

$$$$
>  <molecule>
O=C(Cc1ccc2cc3c(cc2c1)OCO3)NCCc1ccc2c(c1)OCO2

>  <unit of measure>
%

>  <growth inhibition>
-8.4

$$$$
>  <molecule>
O=C1c2cc(Cl)ccc2NC(O)c2cccn21 (stereo unspecified)

>  <unit of measure>
%

>  <growth inhibition>
1.8

$$$$
>  <molecule>
O=C(O)c1ccn(-c2cccc(-n3ccc(C(=O)O)n3)n2)n1

>  <unit of measure>
%

>  <growth inhibition>
-17.1

$$$$

Record request: growth inhibition value, item `CCCCC(=O)Nc1ccc(Cl)cc1` 7.8

* * *

For each record, write down the corresponding growth inhibition.
run description: NCI Yeast Anticancer Drug Screen. Data for the mec2-1 strain (AID 157)
conditions used: S. cerevisiae mec2-1 strain, at 50.0 µM, active compounds read high
The panel holds about 79,000 compounds, 15% with a hit somewhere; the sample as a whole holds those more often.
Numbers only, in %.

>  <compound structure string>
Cc1nc(N)c(N2CCN(S(=O)(=O)N(Cc3ccccc3)Cc3ccccc3)CC2)c(=O)[nH]1

>  <experimental value>
2.3

$$$$
>  <compound structure string>
CNC(=O)OCC1=CC(=O)C=C(OC)C1=O

>  <experimental value>
-14.9

$$$$

Form field: reported growth inhibition of `Cc1cc(Cl)c(=O)n(-c2ccc(Cl)cc2)n1` -4.6
